system: L1210 leukemia ip in BDF1 mice, survival T/C; test: NCI In Vivo Anticancer Drug Screen. Data for tumor model L1210 Leukemia (intraperitoneal) in B6D2F1 (BDF1) mice; details: endpoint: mean survival time; dose: 240.0 mg/kg/injection; schedule: Q01DX Z (ip); vehicle: carboxymethylcellulose (CMC); higher = longer survival
Toxic doses and inconclusive results are not listed.
Measured Quantity: T/C

Task: Returns the measured T/C for the input molecule. Input: CCOC(=O)N/N=C\C(C)=N\NC(=O)OCC
Result: 96 % of control

Task: Now the molecule C/C(CCC(=O)O)=N/N=C(N)N
Result: 108 % of control

Task: Now the molecule O=C(Nc1cc(NC(=O)Nc2cccc(C3=NCCN3)c2)cc(C(=O)Nc2ccccc2)c1)Nc1cccc(C2=NCCN2)c1
Result: 104 % of control

Task: Now the molecule CC(=O)N\C(N)=N/N=C\C(C)=N/N=C(\N)NC(C)=O
Result: 109 % of control

* * *

tested on: L1210 leukemia ip in BDF1 mice, survival T/C; assay: NCI In Vivo Anticancer Drug Screen. Data for tumor model L1210 Leukemia (intraperitoneal) in B6D2F1 (BDF1) mice; conditions: endpoint: mean survival time; dose: 200.0 mg/kg/injection; schedule: Q01DX001 (ip); vehicle: saline; higher = longer survival
Toxic doses and inconclusive results are not listed.
Measured Quantity: T/C

- Molecule: "O=C1NC(CCO)C(=O)NC1CCO (stereo not drawn)"
  Target Or Test System: "L1210 leukemia ip in BDF1 mice, survival T/C"
  Readout Value: "97 % of control"

Task: Form field - read-out: T/C; system: L1210 leukemia ip in BDF1 mice, survival T/C; submitted item: CCOC(=O)N1C2c3ccccc3C3C(C21)N3C(=O)OCC (stereo not drawn)
Result: 102 % of control

Task: Now the molecule O=C(COc1ccc(Cl)c(Cl)c1)Nc1ccc[n+](Cc2c(Cl)cccc2S(=O)(=O)F)c1
Result: 101 % of control

Task: Now the molecule CC(C)CC(=O)Cc1ccccc1
Result: 105 % of control

Task: Now the molecule O=C(O)C1CCCCC1/C=N/Nc1ccc([N+](=O)[O-])cc1[N+](=O)[O-] (stereo not drawn)
Result: 89 % of control

Task: Now the molecule O=C1OC2CCCCC2OC1=O (stereo not drawn)
Result: 101 % of control

Task: Now the molecule Cc1cc(C)c(S(=O)(=O)Cc2cc(Cl)cc(Cl)c2O)c(C)c1
Result: 87 % of control

* * *

test system: L1210 leukemia ip in BDF1 mice, survival T/C; assay: NCI In Vivo Anticancer Drug Screen. Data for tumor model L1210 Leukemia (intraperitoneal) in B6D2F1 (BDF1) mice; details: endpoint: mean survival time; dose: 100.0 mg/kg/injection; schedule: Q04DX003 (ip); vehicle: saline with Tween-80; higher = longer survival
Inconclusive results and toxic doses are left out.
Measured Quantity: T/C

// worked examples, T/C included
- Molecule: "C1CCN(/N=N/c2nn[nH]n2)CC1"
  T/C: "94 % of control"
- Molecule: "COC(=O)C(CSCSC)NC(=O)/C=C/c1ccccc1Cl (centres undefined)"
  T/C: "94 % of control"
- Molecule: "COc1ccc(C2C3CC4C(OC(=O)C42)C3I)cc1 (centres undefined)"
  T/C: "95 % of control"

// moving on: another record for T/C
Task: Form field - read-out: T/C; system: L1210 leukemia ip in BDF1 mice, survival T/C; submitted item: CC(C)(C)C(=O)CC(=O)C(C)(C)C.CC(C)(C)C(=O)CC(=O)C(C)(C)C.CC(C)(C)C(=O)CC(=O)C(C)(C)C.CC(C)(C)C(=O)CC(=O)C(C)(C)C.[Th]
Result: 96 % of control

* * *

system: L1210 leukemia ip in BDF1 mice, survival T/C; assay: NCI In Vivo Anticancer Drug Screen. Data for tumor model L1210 Leukemia (intraperitoneal) in B6D2F1 (BDF1) mice; details: endpoint: mean survival time; dose: 25.0 mg/kg/injection; schedule: Q04DX003 (ip); vehicle: saline; higher = longer survival
Inconclusive results and toxic doses are left out.
Measured Quantity: T/C

// worked examples, T/C included
- Molecule: "c1cc[n+]2c(c1)-c1cccc[n+]1CC2"
  T/C: "104 % of control"
- Molecule: "COc1ccc(C(=O)CBr)c(OC)c1"
  T/C: "97 % of control"
- Molecule: "CN=C(N)N(C)NCc1ccccc1"
  T/C: "100 % of control"

// moving on: another record for T/C
Task: Form field - read-out: T/C; system: L1210 leukemia ip in BDF1 mice, survival T/C; submitted item: Cc1cccc2nc(-c3ccccc3)ccc12
Result: 98 % of control

* * *

tested on: L1210 leukemia ip in BDF1 mice, survival T/C; experiment: NCI In Vivo Anticancer Drug Screen. Data for tumor model L1210 Leukemia (intraperitoneal) in B6D2F1 (BDF1) mice; conditions: endpoint: mean survival time; dose: 50.0 mg/kg/injection; schedule: Q04DX003 (ip); vehicle: saline with Tween-80; higher = longer survival
Toxic doses and inconclusive results are not listed.
Quick reference: T/C of the listed items.

// worked examples, T/C included
- Compound: "CC1=CC(=O)C2(C)C(C)=C(C)C12C (stereo not given)"
  Readout Value: "99 % of control"
- Compound: "O/N=C/c1cccc(/C=N/O)c1"
  Readout Value: "95 % of control"
- Compound: "CC1(C)OCC(CO)([N+](=O)[O-])CO1"
  Readout Value: "95 % of control"
- Compound: "C1CCC(CC2CCNCC2)CC1"
  Readout Value: "102 % of control"

Task: Returns the measured T/C for the input compound. Input: COc1ccc(/C=C/c2cc[n+](C)cc2)cc1
Result: 94 % of control

* * *

tested on: L1210 leukemia ip in BDF1 mice, survival T/C; test: NCI In Vivo Anticancer Drug Screen. Data for tumor model L1210 Leukemia (intraperitoneal) in B6D2F1 (BDF1) mice; conditions: endpoint: mean survival time; dose: 75.0 mg/kg/injection; schedule: Q01DX009 (ip); vehicle: Klucel (hydroxypropylcellulose) (HPC); higher = longer survival
Inconclusive results and toxic doses are left out.
Quick reference: T/C of the listed items.

- Molecule: "Cc1cc(C)c(C(Cl)(Cl)Cl)c(C)c1Cl"
  Measured Quantity: "T/C"
  Readout Value: "107 % of control"
- Molecule: "Clc1cc(Cl)c(OCC#CI)c(Cl)c1Cl"
  Measured Quantity: "T/C"
  Readout Value: "98 % of control"
- Molecule: "COc1ccc(C(N)C(=O)O)cc1 (centres undefined)"
  Measured Quantity: "T/C"
  Readout Value: "110 % of control"

// moving on: another record for T/C
Task: Form field - read-out: T/C; system: L1210 leukemia ip in BDF1 mice, survival T/C; submitted item: [O-]c1on[n+](-c2ccccc2)c1-c1ccccc1
Result: 93 % of control

* * *

Test system: L1210 leukemia ip in BDF1 mice, survival T/C
Test: NCI In Vivo Anticancer Drug Screen. Data for tumor model L1210 Leukemia (intraperitoneal) in B6D2F1 (BDF1) mice
Details: endpoint: mean survival time; dose: 100.0 mg/kg/injection; schedule: Q04DX003 (ip); vehicle: Klucel (hydroxypropylcellulose) (HPC); higher = longer survival
Method: The antitumor activity of compounds was measured in mice bearing transplantable tumors. Survival or tumor size were measured and the results are expressed as the measurement made in the treated group (T) divided by the measurement made in the vehicle treated control group (C). The tumor model used in this assay is L1210 Leukemia (intraperitoneal) in B6D2F1 (BDF1) mice
Toxic doses and inconclusive results are not listed.
Quick reference: T/C of the listed items.

// worked examples, T/C included
- Molecule: "O=C(O)c1ccc(B(O)O)cc1"
  Measured Quantity: "T/C"
  Readout Value: "103 % of control"
- Molecule: "Oc1ccc(Nc2cc(/C=C/c3ccc(Cl)cc3)nc(/C=C/c3ccc(Cl)cc3)n2)cc1CN1CCCC1"
  Measured Quantity: "T/C"
  Readout Value: "95 % of control"
- Molecule: "CN(C)N=Nc1ccc(C(=O)N/N=C/c2ccc(Br)cc2)cc1"
  Measured Quantity: "T/C"
  Readout Value: "94 % of control"
- Molecule: "COC1c2c(nc3ccccc3c2C(=O)O)-c2ccccc2C1(C)C (stereo not given)"
  Measured Quantity: "T/C"
  Readout Value: "104 % of control"
- Molecule: "CC1=CC(=O)C2C(C)(O1)C1C(=O)C=C(C)OC21C (stereo not given)"
  Measured Quantity: "T/C"
  Readout Value: "101 % of control"

Task: Returns the measured T/C for the input molecule. Input: Cc1cc(OC(=O)Nc2cc([N+](=O)[O-])ccc2F)cc(C)c1Cl
Result: 89 % of control

Task: Now the molecule Cc1ccc2[nH]c3c(c2c1)C[P+](Cc1cccc2ccccc12)(c1ccccc1)CC3 (stereo not given)
Result: 99 % of control

Task: Now the molecule O=c1cc(NCc2c(Cl)cccc2[N+](=O)[O-])[nH]c(=O)[nH]1
Result: 98 % of control

Task: Now the molecule CCOC(=O)c1scnc1C
Result: 95 % of control

Task: Now the molecule Cc1ccc(N)cn1
Result: 98 % of control
